- methodNotes: Comparable solubility in phosphate buffer / physiologically relevant medium
- Type: physicochemical
- conditionsUsed: aqueous buffer; Phosphate buffer pH=6.76; 60 min; read-out: C60 min
readoutType: solubility at 1 h

I have this molecule here, CCOc1nc2cccc(C(=O)OC(C)OC(=O)OC3CCCCC3)c2n1Cc1ccc(-c2ccccc2-c2nnn[nH]2)cc1 (stereo not shown) [Form 1, candesartan cilexetil] , and I need its recorded solubility at 1 h.
< 0.2 µg/mL

###

- methodNotes: Comparable solubility in phosphate buffer / physiologically relevant medium
- Type: physicochemical
- conditionsUsed: phosphate buffer + taurocholate + lecithin; Physiologically relevant medium: phosphate buffer pH=6.76 + Sodiumtauroholat (2,5 mM) + Lecitin (0,5 mM); 30 min; read-out: C30 min
readoutType: solubility at 0.5 h (µg/mL)
Express your answer in µg/mL, writing the number without its unit.

Would you kindly share the measured solubility at 0.5 h for CCOc1nc2cccc(C(=O)OC(C)OC(=O)OC3CCCCC3)c2n1Cc1ccc(-c2ccccc2-c2nnn[nH]2)cc1 (stereo not shown) [Form 5, candesartan cilexetil] ?
37.1
